Data origin, for the record: ChEMBL document CHEMBL3865847

System: Cryptococcus neoformans
assay-notes: Antimicrobial activity against Cryptococcus neoformans ATCC 52657
Format: functional
endpoint-label: MIC80 (mg/L)
Answers are plain numbers, in mg/L.

mol-smiles	experimental-system	endpoint-unit	MIC80
COc1ccc2c(c1)-c1c3c-2nccc3cc[n+]1Cc1ccccc1.[Br-]	Cryptococcus neoformans	mg/L	1.56
[Br-].c1ccc(C[n+]2ccc3cc(-c4ccccc4)nc4c3c2-c2ccccc2-4)cc1	Cryptococcus neoformans	mg/L	3.12
Cc1ccc2c(c1)-c1c3c-2nccc3cc[n+]1Cc1ccccc1.[Br-]	Cryptococcus neoformans	mg/L	1.56
O=[N+]([O-])c1ccc(C[n+]2ccc3ccnc4c3c2-c2ccccc2-4)cc1.[Br-]	Cryptococcus neoformans	mg/L	6.25

Now examine the next entry.
So for C[n+]1ccc2c3c(nc4ccccc42)-c2ccccc2-c31.[I-] , the logged MIC80 turned out to be 6.25

====

Tested on: Plasmodium falciparum
assay-notes: Antimalarial activity against Plasmodium falciparum D6 infected in RBC after 48 hrs by lactate dehydrogenase assay
Format: functional
condition-context: D6, 48 h
For each record, write down the corresponding IC50.

mol-smiles	endpoint-label	result
Fc1ccc2c(c1)-c1c3c-2nccc3cc[n+]1Cc1ccccc1.[Br-]	IC50	0.033 µg/mL
CC[n+]1ccc2c3c(nc4ccccc42)-c2ccccc2-c31.[I-]	IC50	0.033 µg/mL
[Br-].c1ccc(C[n+]2ccc3cc(-c4ccccc4)nc4c3c2-c2ccccc2-4)cc1	IC50	0.04 µg/mL
Cc1cc2cc[n+](Cc3ccccc3)c3c2c(n1)-c1ccccc1-3.[Br-]	IC50	0.095 µg/mL

For the next question, use this compound.
Lab note: [Br-].c1ccc(C[n+]2ccc3ccnc4c3c2-c2ccccc2-4)cc1 gave IC50 of 0.0225 µg/mL

====

System: Plasmodium falciparum
assay-notes: Antimalarial activity against Plasmodium falciparum D6 infected in RBC after 48 hrs by lactate dehydrogenase assay
Assay type: functional
condition-context: D6, 48 h
# if measured IC50 < 0.5 µg/mL: Condition met  # else: Condition not met

input: Hello, is IC50 of the following compound strictly smaller than 0.5 µg/mL? Cc1cc(C)cc(CS(=O)(=O)[O-])c1.N[n+]1ccc2ccnc3c2c1-c1ccccc1-3
output: Condition not met

input: Strictly below 0.5 µg/mL: is that where IC50 of C[n+]1ccc2cc(-c3ccccc3)nc3c2c1-c1ccccc1-3.[I-] sits?
output: Condition met

input: Would you kindly verify if IC50 of O=C(C[n+]1ccc2ccnc3c2c1-c1ccccc1-3)c1ccccc1.[Br-] is strictly less than 0.5 µg/mL?
output: Condition met

input: For this compound, is IC50 lower than 0.5 µg/mL? C[n+]1ccc2c3c(nc4ccccc42)-c2ccccc2-c31.Cc1ccc(S(=O)(=O)[O-])cc1
output: Condition met

input: Criterion: IC50 strictly below 0.5 µg/mL. Is it met by Cc1cc2cc[n+](C)c3c2c(n1)-c1ccccc1-3.[I-] ?
output: Condition met

input: Determine if CCOC(=O)C[n+]1ccc2c3c(nc4ccccc42)-c2ccccc2-c31.[Br-] shows IC50 strictly lower than 0.5 µg/mL.
output: Condition not met

====

assay-notes: Cytotoxicity against African green monkey Vero cells assessed as cell growth inhibition after 48 hrs by neutral red dye based assay
Format: toxicity, Chlorocebus sabaeus
endpoint-label: IC50 at 48 h (µg/mL)
Give bare numbers, in µg/mL.

mol-smiles	IC50 at 48 h / µg/mL
FC(F)(F)c1ccc(C[n+]2ccc3ccnc4c3c2-c2ccccc2-4)cc1.[Br-]	6.4

Now examine the next entry.
Summary for this compound, CC[n+]1c2c3c(nc(-c4ccccc4)cc3c3ccccc31)-c1ccccc1-2.[Br-] : IC50 at 48 h is 7.8

====

Test system: Cryptococcus neoformans
assay-notes: Antimicrobial activity against Cryptococcus neoformans ATCC 52657
Assay type: functional
Exercise: state measured log10 MIC80 for each of the molecules provided.
Log10 applied to MIC80; unit prior to transform: µg/mL.

mol-smiles	experimental-system	numeric-result
Cc1ccc(C[n+]2ccc3ccnc4c3c2-c2ccccc2-4)cc1.[Br-]	Cryptococcus neoformans	-0.11
c1ccc2c(c1)-c1nccc3ccnc-2c13	Cryptococcus neoformans	1.40
NC(=O)C[n+]1ccc2ccnc3c2c1-c1ccccc1-3.[Br-]	Cryptococcus neoformans	1.70
FC(F)(F)c1ccc(C[n+]2ccc3ccnc4c3c2-c2ccccc2-4)cc1.[Br-]	Cryptococcus neoformans	0.49
[Br-].c1ccc2c(c1)-c1nccc3cc[n+](Cc4ccc5ccccc5c4)c-2c13	Cryptococcus neoformans	-0.41

# batch: return log10 MIC80 for each of the 5 molecules below
1. C[n+]1ccc2ccnc3c2c1-c1ccccc1-3.[I-]
2. Fc1ccc(C[n+]2ccc3ccnc4c3c2-c2ccccc2-4)c(F)c1.[Br-]
3. Brc1cccc(C[n+]2ccc3ccnc4c3c2-c2ccccc2-4)c1.[Br-]
4. COc1cc(C[n+]2ccc3ccnc4c3c2-c2ccccc2-4)cc(OC)c1.[Br-]
5. C[n+]1ccc2c3c(nc4cc5c(cc42)OCO5)-c2ccccc2-c31.[I-]

output:
[1.70, 0.19, -0.11, 0.49, 0.19]

Look up log10 MIC80 for the entries below, preserving their order.
1. C[C@@H]1[C@H](O)[C@@H](C)/C=C/C=C/C=C/C=C/C=C/C=C/C=C/[C@H](O[C@@H]2O[C@H](C)[C@@H](O)[C@H](N)[C@@H]2O)C[C@@H]2O[C@](O)(C[C@@H](O)C[C@@H](O)[C@H](O)CC[C@@H](O)C[C@@H](O)CC(=O)O[C@H]1C)C[C@H](O)[C@H]2C(=O)O
2. [Br-].c1ccc(C[n+]2ccc3c4c(nc5cc6c(cc53)OCO6)-c3ccccc3-c42)cc1
3. Clc1cccc(C[n+]2ccc3ccnc4c3c2-c2ccccc2-4)c1.[Br-]
4. CC[n+]1ccc2ccnc3c2c1-c1ccccc1-3.[I-]
5. C[n+]1c2c3c(nc(-c4ccccc4)cc3c3ccccc31)-c1ccccc1-2.[I-]

output:
1: -1.11; 2: 0.49; 3: -0.11; 4: 1.40; 5: -0.11

====

What Ratio IC50 was measured for each of the following?
assay-notes: Selectivity index, ratio of IC50 for human DNA topoisomerase 1 to IC50 for Candida albicans DNA topoisomerase 1
Numbers only.

Below are worked cases with known answers.
mol-smiles	Ratio IC50
CCOC(=O)C[n+]1ccc2ccnc3c2c1-c1ccccc1-3.[Br-]	0.83
[Br-].c1ccc(C[n+]2ccc3ccnc4c3c2-c2ccccc2-4)cc1	0.5
Brc1cccc(C[n+]2ccc3ccnc4c3c2-c2ccccc2-4)c1.[Br-]	0.95
C[n+]1ccc2c3c(nc4cc5c(cc42)OCO5)-c2ccccc2-c31.[I-]	0.94
Fc1ccc(C[n+]2ccc3ccnc4c3c2-c2ccccc2-4)cc1.[Br-]	0.8

// batch mode: one Ratio IC50 value per listed entry
1. Fc1ccc(C[n+]2ccc3ccnc4c3c2-c2ccccc2-4)c(F)c1.[Br-]
2. FC(F)(F)c1ccc(C[n+]2ccc3ccnc4c3c2-c2ccccc2-4)cc1.[Br-]
3. [Br-].c1ccc(C[n+]2ccc3c4c(nc5ccccc53)-c3ccccc3-c42)cc1
4. O=[N+]([O-])c1ccc(C[n+]2ccc3ccnc4c3c2-c2ccccc2-4)cc1.[Br-]
5. CC[n+]1ccc2c3c(nc4ccccc42)-c2ccccc2-c31.[I-]
6. CC[n+]1ccc2ccnc3c2c1-c1ccccc1-3.[I-]
7. Cc1cc2c3c(nc4ccccc42)-c2ccccc2-c3[n+]1C.[I-]
8. [Br-].c1ccc2c(c1)-c1nccc3cc[n+](Cc4ccc5ccccc5c4)c-2c13

output:
1: 0.71; 2: 0.97; 3: 0.96; 4: 0.86; 5: 1; 6: 0.67; 7: 0.71; 8: 0.7

Entry [Br-].c1ccc(C[n+]2ccc3cc(-c4ccccc4)nc4c3c2-c2ccccc2-4)cc1 , Ratio IC50 reported as 0.98

====

System: Plasmodium falciparum
assay-notes: Antimalarial activity against Plasmodium falciparum D6 infected in RBC after 48 hrs by lactate dehydrogenase assay
Type: functional
condition-context: D6, 48 h
endpoint-label: IC50 (µg/mL)
One number for each entry, in µg/mL.

mol-smiles	IC50 / µg/mL
C[n+]1ccc2c3c(nc4ccccc42)-c2ccccc2-c31.[I-]	0.033

Each molecule below has a recorded value; state its IC50.
1. C[n+]1ccc2c3c(nc4cc5c(cc42)OCO5)-c2ccccc2-c31.[I-]
2. FC(F)(F)c1ccc(C[n+]2ccc3ccnc4c3c2-c2ccccc2-4)cc1.[Br-]
3. Cc1ccc2c(c1)-c1c3c-2nccc3cc[n+]1Cc1ccccc1.[Br-]
4. Fc1ccc(C[n+]2ccc3ccnc4c3c2-c2ccccc2-4)c(F)c1.[Br-]

output:
0.028
0.0085
0.062
0.015

Look up IC50 for the entries below, preserving their order.
1. Cc1cc2c3c(nc4ccccc42)-c2ccccc2-c3[n+]1C.[I-]
2. [Br-].c1ccc2c(c1)-c1nccc3cc[n+](Cc4ccc5ccccc5c4)c-2c13
3. Clc1cccc(C[n+]2ccc3ccnc4c3c2-c2ccccc2-4)c1.[Br-]
4. Fc1ccc(C[n+]2ccc3ccnc4c3c2-c2ccccc2-4)cc1.[Br-]
5. Cc1ccc(C[n+]2ccc3ccnc4c3c2-c2ccccc2-4)cc1.[Br-]

output:
0.02
0.0195
0.0042
0.017
0.0095
